Molecular target: JAK3 (Homo sapiens, UniProt P52333)
Sequence (P52333 whole entry): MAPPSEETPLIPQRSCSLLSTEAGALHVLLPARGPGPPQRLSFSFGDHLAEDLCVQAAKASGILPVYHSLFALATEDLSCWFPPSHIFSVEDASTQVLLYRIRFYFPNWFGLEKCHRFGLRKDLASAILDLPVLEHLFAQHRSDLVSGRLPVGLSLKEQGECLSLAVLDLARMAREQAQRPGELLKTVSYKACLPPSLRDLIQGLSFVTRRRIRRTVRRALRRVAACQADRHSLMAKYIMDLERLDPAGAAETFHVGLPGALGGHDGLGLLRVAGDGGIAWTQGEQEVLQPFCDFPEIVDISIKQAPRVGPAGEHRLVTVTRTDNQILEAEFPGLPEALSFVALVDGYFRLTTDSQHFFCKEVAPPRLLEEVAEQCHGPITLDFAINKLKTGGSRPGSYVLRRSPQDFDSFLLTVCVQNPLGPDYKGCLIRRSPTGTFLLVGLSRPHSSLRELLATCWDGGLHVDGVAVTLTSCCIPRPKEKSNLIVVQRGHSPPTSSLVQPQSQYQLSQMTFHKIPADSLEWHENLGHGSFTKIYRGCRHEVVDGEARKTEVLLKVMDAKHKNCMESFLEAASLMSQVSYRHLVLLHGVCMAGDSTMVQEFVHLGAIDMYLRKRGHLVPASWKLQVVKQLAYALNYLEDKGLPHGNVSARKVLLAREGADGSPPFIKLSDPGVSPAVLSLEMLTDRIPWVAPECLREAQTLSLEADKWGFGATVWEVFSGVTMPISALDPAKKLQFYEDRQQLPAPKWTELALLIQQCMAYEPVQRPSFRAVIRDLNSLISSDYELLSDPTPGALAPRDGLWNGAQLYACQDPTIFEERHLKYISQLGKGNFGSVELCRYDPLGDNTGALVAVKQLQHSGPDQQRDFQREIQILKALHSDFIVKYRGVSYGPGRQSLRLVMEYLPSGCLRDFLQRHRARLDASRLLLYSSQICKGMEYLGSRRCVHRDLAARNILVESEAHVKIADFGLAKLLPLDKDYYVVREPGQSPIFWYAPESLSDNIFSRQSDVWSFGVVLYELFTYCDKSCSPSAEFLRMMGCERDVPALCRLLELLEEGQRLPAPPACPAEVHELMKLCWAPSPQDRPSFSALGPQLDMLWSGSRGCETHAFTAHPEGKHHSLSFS
Experiment: JAK kinase activity, homogeneous time-resolved fluorescence (JAK3 reaction system)
Type: biochemical
Conditions: ATP 2 μM, JAK3 protein 0.04 ng/μL; read-out: JAK 3 activity
Protocol: The activity measurement method of JAK kinase was to use homogeneous time-resolved fluorescence technique. […] The mixture of kinase protein, compound, ATP and substrate was carried out in a reaction buffer of 50 mM Hepes (pH7.0), NaN3 0.02%, BSA 0.01%, 0.1 mM Orthocanadate, 5 mM MgCl2, and 1 mM DTT. […] The reaction signal of kinase was detected by PE company's porous plate detector. The parameter settings were excitation light at 320 nm, emission light at 615 nm and 665 nm. […]
Quantity name: IC50

# Compound, Result
records = [
    ("O=C1NCCCCOCc2cc(ccc2Oc2ccc(F)cc2)Nc2nccc(n2)-c2ccc1cc2[N+](=O)[O-]", "101 to 1000 nM"),
    ("Nc1cc2ccc1-c1ccnc(n1)Nc1ccc(OCC3Cc4ccccc4C3)c(c1)COCCCCNC2=O", "11 to 100 nM"),
    ("O=C1NCCCCOCc2cc(ccc2OCC2Cc3ccccc3C2)Nc2nccc(n2)-c2ccc1cc2[N+](=O)[O-]", "101 to 1000 nM"),
]

Recorded result, Cc1ccc2cc1COCCCCNC(=O)c1ccc(c(N)c1)-c1ccnc(n1)N2 , IC50: 101 to 1000 nM

Recorded IC50 (compound O=C1NCCCCOCc2cc(ccc2N2CCOCC2)Nc2ncc(Cl)c(n2)-c2ccc1cc2 ): < 10 nM

IC50 in this record for COc1ccccc1COc1ccc2cc1COCCCCNC(=O)c1ccc(c(N)c1)-c1ccnc(n1)N2 : 11 to 100 nM

Per the records, this compound ( O=C1NCCCCOCc2cc(ccc2OCC2CC2)Nc2nccc(n2)-c2ccc1cc2[N+](=O)[O-] ) has IC50 equal to 101 to 1000 nM

Value of IC50 reported for the compound Nc1cc2ccc1-c1ccnc(n1)Nc1ccc(N3CCOCC3)c(c1)COCCCCCCNC2=O is 11 to 100 nM

// IC50 value for COc1cc(Cl)cc(F)c1COc1ccc2cc1COCCCCNC(=O)c1ccc(c(N)c1)-c1ccnc(n1)N2 : 11 to 100 nM

Entry Nc1cc2ccc1-c1ccnc(n1)Nc1ccc(OCC3CCOC3)c(c1)COc1ccc(cc1)NC2=O (stereo not shown) — recorded IC50 = 11 to 100 nM

Record CC1CCOCc2cc(ccc2OC2CC2)Nc2nccc(n2)-c2ccc(cc2N)C(=O)NC1 (stereo not shown) , field IC50: < 10 nM

The reported value for CC(C)Oc1ccc2cc1COCCCCNC(=O)c1ccc(c([N+](=O)[O-])c1)-c1ccnc(n1)N2 in terms of IC50 is 101 to 1000 nM

For reference, reported IC50 for O=C1NCCCCOCc2cc(ccc2N2CCOCC2)Nc2ncc(Cl)c(n2)-c2ccc1cc2Cl stands at 101 to 1000 nM

====

Biological target: JAK3 (Homo sapiens)
Assay: JAK kinase activity, homogeneous time-resolved fluorescence (JAK3 reaction system)
Assay type: biochemical
Details: ATP 2 μM, JAK3 protein 0.04 ng/μL; read-out: JAK 3 activity
pIC50: −log10 of the molar value.
Quantity name: pIC50

See these solved cases before continuing.
# Compound, System, pIC50
data = [
    ("O=C1Nc2ccc(cc2)OCc2cc(ccc2F)Nc2nccc(n2)-c2ccc1cc2O", "JAK3 (Homo sapiens)", "7.00 to 7.96"),
    ("O=C1NCCCCOCc2cc(ccc2F)Nc2nccc(n2)-c2ccc1cc2[N+](=O)[O-]", "JAK3 (Homo sapiens)", "6.00 to 7.00"),
]

Here's the next entry for you.
// recorded pIC50 for CC1CCOCc2cc(ccc2OCC2CCOC2)Nc2nccc(n2)-c2ccc(cc2[N+](=O)[O-])C(=O)NC1 (stereo not drawn) : 6.00 to 7.00
